Values were extracted from the Kinase Knowledgebase extract (Sharma et al. 2016).

Molecular target: PIK3CD (Human)
Assay: Enzyme Assay
reported_property: IC50 (nM)

smiles=N#Cc1c(N)ncnc1N1CCC[C@H]1c1nc2cccc(C(F)(F)F)c2c(=O)n1-c1cccnc1 measurement_target="PIK3CD (Human)" unit_of_measure=nM endpoint_value=75
smiles=CO[C@H]1C[C@@H](c2nc3cccc(Cl)c3c(=O)n2-c2ccccc2)N(c2nc(N)nn3ccnc23)C1 measurement_target="PIK3CD (Human)" unit_of_measure=nM endpoint_value=140
smiles=N#Cc1c(N)ncnc1N1CCC[C@H]1c1nc2cccc(C(F)(F)F)c2c(=O)n1-c1cccc(F)c1 measurement_target="PIK3CD (Human)" unit_of_measure=nM endpoint_value=19
smiles=O=c1c2c(Cl)cccc2nc([C@@H]2CCCN2c2ncnc3[nH]cnc23)n1C1CCOCC1 measurement_target="PIK3CD (Human)" unit_of_measure=nM endpoint_value=59

* * *

Biological target: PIK3CA (human)
Assay: Enzyme Assay
Reported log10(IC50) values for a set of molecules
reported_property: log10(IC50) (log10 of the value in µM)

smiles=Cc1nc(N)nc(N2C[C@@H](O)C[C@H]2c2nc3cccc(C(F)(F)F)c3c(=O)n2-c2cccnc2)c1C#N endpoint_value=0.26
smiles=Cc1nc(N)nc(N2CCC[C@H]2c2nc3cccc(Cl)c3c(=O)n2-c2ccccc2)c1C#N endpoint_value=-1.14
smiles=Cc1nc(N)nc(N2CCC[C@H]2c2nc3ccc(F)c(F)c3c(=O)n2-c2ccccc2)c1C#N endpoint_value=-0.22
smiles=Cc1nc(N)nc(N2CCC[C@H]2c2nc3ccc(F)c(C(F)(F)F)c3c(=O)n2-c2ccccc2)c1C#N endpoint_value=-0.41
smiles=O=c1c2c(Cl)cccc2nc([C@@H]2C[C@H](O)CN2c2ncnc3[nH]cnc23)n1-c1ccccc1 endpoint_value=0.15
smiles=N#Cc1c(N)ncnc1N1CCC[C@H]1c1nc2cccc(OC(F)F)c2c(=O)n1-c1ccccc1 endpoint_value=0.38
smiles=Cc1nc(N)nc(N2CCC[C@H]2c2nc3ccc(F)c(S(C)(=O)=O)c3c(=O)n2-c2ccccc2)c1C#N endpoint_value=0.74
smiles=Cc1nc(N)nc(N2C[C@@H](O)C[C@H]2c2nc3cccc(C(F)(F)F)c3c(=O)n2-c2cccc(F)c2)c1C#N endpoint_value=0.23
smiles=Nc1nc(N2C[C@@H](F)C[C@H]2c2nc3cccc(C(F)(F)F)c3c(=O)n2-c2cccc(F)c2)c2nc[nH]c2n1 endpoint_value=0.40
smiles=N#Cc1c(N)ncnc1N1CCC[C@H]1c1nc2cccc(F)c2c(=O)n1-c1ccccc1 endpoint_value=0.48
smiles=CO[C@H]1C[C@@H](c2nc3cccc(Cl)c3c(=O)n2-c2ccccc2)N(c2ncnc3[nH]cnc23)C1 endpoint_value=0.00
smiles=Nc1nc(N2C[C@@H](O)C[C@H]2c2nc3cccc(Cl)c3c(=O)n2-c2ccccc2)c2nccn2n1 endpoint_value=0.00
smiles=Nc1nc(N2C[C@@H](O)C[C@H]2c2nc3cccc(C(F)(F)F)c3c(=O)n2-c2ccccc2)c2nccn2n1 endpoint_value=0.52
smiles=N#Cc1c(N)ncnc1N1CCC[C@H]1c1nc2cccc(Cl)c2c(=O)n1N1CCOCC1 endpoint_value=0.20
smiles=Cc1nc(N)nc(N2CCC[C@H]2c2nc3cccc(C(F)(F)F)c3c(=O)n2-c2cccc(F)c2)c1C#N endpoint_value=-0.05

* * *

Target: PIK3CA (human) (UniProt P42336)
Sequence (P42336 whole entry, looked up): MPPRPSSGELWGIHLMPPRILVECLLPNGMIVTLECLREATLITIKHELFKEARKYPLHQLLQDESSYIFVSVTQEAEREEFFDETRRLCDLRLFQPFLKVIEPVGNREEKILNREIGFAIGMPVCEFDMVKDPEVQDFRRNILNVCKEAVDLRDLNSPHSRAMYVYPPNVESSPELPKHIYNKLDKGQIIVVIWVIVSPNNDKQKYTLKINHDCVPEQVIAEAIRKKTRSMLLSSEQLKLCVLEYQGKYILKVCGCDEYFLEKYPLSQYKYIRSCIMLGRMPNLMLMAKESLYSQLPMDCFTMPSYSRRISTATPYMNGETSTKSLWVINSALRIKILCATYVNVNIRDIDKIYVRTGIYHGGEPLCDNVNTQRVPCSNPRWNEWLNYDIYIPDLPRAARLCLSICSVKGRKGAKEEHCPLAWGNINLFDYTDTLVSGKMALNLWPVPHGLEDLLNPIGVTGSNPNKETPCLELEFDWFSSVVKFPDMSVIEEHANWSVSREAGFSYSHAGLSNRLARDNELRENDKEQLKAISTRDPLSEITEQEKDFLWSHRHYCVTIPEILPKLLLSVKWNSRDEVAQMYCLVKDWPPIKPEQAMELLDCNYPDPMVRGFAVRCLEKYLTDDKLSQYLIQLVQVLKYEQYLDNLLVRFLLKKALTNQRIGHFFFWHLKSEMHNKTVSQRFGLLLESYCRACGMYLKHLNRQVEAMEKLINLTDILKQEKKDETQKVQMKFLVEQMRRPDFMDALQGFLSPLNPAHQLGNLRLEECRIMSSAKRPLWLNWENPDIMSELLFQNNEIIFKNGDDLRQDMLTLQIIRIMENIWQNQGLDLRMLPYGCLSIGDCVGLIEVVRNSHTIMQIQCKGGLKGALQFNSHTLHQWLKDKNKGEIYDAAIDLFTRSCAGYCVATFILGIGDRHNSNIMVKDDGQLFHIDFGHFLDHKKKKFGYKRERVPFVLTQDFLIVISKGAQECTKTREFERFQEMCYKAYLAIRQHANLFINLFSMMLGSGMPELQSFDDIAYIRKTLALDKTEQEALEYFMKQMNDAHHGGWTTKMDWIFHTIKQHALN
Assay: Cell-Based Assay
Details: rat-1
reported_property: IC50 (µM)

smiles=Cc1nc(N)nc(N2C[C@@H](O)C[C@H]2c2nc3cccc(C(F)(F)F)c3c(=O)n2N2CCOCC2)c1C#N censor_symbol== endpoint_value=4.59
smiles=O=c1c2c(Cl)cccc2nc([C@@H]2CSCN2c2ncnc3[nH]cnc23)n1-c1ccccc1 censor_symbol=> endpoint_value=10
smiles=O=c1c2c(C(F)(F)F)cccc2nc([C@@H]2C[C@H](F)CN2c2ncnc3[nH]cnc23)n1-c1ccccc1 censor_symbol== endpoint_value=5.23
smiles=Cc1nc(N)nc(N2CCC[C@H]2c2nc3cccc(C(F)(F)F)c3c(=O)n2-c2cccc(F)c2)c1C#N censor_symbol== endpoint_value=4.44
smiles=CO[C@H]1C[C@@H](c2nc3cccc(Cl)c3c(=O)n2N2CCOCC2)N(c2ncnc(N)c2C#N)C1 censor_symbol=> endpoint_value=10
smiles=Nc1nc(N2CCC[C@H]2c2nc3cccc(Cl)c3c(=O)n2C2CC2)c2nc[nH]c2n1 censor_symbol== endpoint_value=8.12
smiles=N#Cc1c(N)ncnc1N1CCC[C@H]1c1nc2cccc(Cl)c2c(=O)n1C1CCOCC1 censor_symbol=> endpoint_value=10
smiles=Nc1nc(N2CCC[C@H]2c2nc3cccc(Cl)c3c(=O)n2N2CCOCC2)c2nc[nH]c2n1 censor_symbol=> endpoint_value=10

* * *

Target: PIK3CA (human) (UniProt P42336)
Assay: Cell-Based Assay
Details: rat-1
pIC50: −log10 of the molar value.
reported_property: pIC50

smiles=CO[C@H]1C[C@@H](c2nc3cccc(Cl)c3c(=O)n2-c2ccccc2)N(c2ncnc3[nH]cnc23)C1 measurement_target="PIK3CA (human) (UniProt P42336)" reported_property=pIC50 censor_symbol== endpoint_value=5.26
smiles=Cc1nc(N)nc(N2C[C@@H](F)C[C@H]2c2nc3cccc(C(F)(F)F)c3c(=O)n2-c2ccccc2)c1C#N measurement_target="PIK3CA (human) (UniProt P42336)" reported_property=pIC50 censor_symbol== endpoint_value=5.69
smiles=Cc1nc(N)nc(N2C[C@@H](O)C[C@H]2c2nc3cccc(C(F)(F)F)c3c(=O)n2-c2cccnc2)c1C#N measurement_target="PIK3CA (human) (UniProt P42336)" reported_property=pIC50 censor_symbol=< endpoint_value=5.00
smiles=O=c1c2c(Cl)cccc2nc([C@@H]2C[C@H](OC(F)F)CN2c2ncnc3[nH]cnc23)n1-c1ccccc1 measurement_target="PIK3CA (human) (UniProt P42336)" reported_property=pIC50 censor_symbol=< endpoint_value=5.00
smiles=N#Cc1c(N)nc(N)nc1N1CCC[C@H]1c1nc2cccc(C(F)(F)F)c2c(=O)n1-c1ccccc1 measurement_target="PIK3CA (human) (UniProt P42336)" reported_property=pIC50 censor_symbol== endpoint_value=5.63
smiles=O=c1c2c(Cl)cccc2nc([C@@H]2CCCN2c2ncnc3[nH]cnc23)n1C1CCCCC1 measurement_target="PIK3CA (human) (UniProt P42336)" reported_property=pIC50 censor_symbol=< endpoint_value=5.00
smiles=N#Cc1c(N)ncnc1N1CCC[C@H]1c1nc2cccc(F)c2c(=O)n1-c1ccccc1 measurement_target="PIK3CA (human) (UniProt P42336)" reported_property=pIC50 censor_symbol=< endpoint_value=5.00
smiles=Cc1nc(N)nc(N2CCC[C@H]2c2nc3cccc(Cl)c3c(=O)n2C2CC2)c1C#N measurement_target="PIK3CA (human) (UniProt P42336)" reported_property=pIC50 censor_symbol== endpoint_value=5.94

* * *

Biological target: PIK3CG (human) (UniProt P48736)
Sequence (P48736 whole entry, looked up): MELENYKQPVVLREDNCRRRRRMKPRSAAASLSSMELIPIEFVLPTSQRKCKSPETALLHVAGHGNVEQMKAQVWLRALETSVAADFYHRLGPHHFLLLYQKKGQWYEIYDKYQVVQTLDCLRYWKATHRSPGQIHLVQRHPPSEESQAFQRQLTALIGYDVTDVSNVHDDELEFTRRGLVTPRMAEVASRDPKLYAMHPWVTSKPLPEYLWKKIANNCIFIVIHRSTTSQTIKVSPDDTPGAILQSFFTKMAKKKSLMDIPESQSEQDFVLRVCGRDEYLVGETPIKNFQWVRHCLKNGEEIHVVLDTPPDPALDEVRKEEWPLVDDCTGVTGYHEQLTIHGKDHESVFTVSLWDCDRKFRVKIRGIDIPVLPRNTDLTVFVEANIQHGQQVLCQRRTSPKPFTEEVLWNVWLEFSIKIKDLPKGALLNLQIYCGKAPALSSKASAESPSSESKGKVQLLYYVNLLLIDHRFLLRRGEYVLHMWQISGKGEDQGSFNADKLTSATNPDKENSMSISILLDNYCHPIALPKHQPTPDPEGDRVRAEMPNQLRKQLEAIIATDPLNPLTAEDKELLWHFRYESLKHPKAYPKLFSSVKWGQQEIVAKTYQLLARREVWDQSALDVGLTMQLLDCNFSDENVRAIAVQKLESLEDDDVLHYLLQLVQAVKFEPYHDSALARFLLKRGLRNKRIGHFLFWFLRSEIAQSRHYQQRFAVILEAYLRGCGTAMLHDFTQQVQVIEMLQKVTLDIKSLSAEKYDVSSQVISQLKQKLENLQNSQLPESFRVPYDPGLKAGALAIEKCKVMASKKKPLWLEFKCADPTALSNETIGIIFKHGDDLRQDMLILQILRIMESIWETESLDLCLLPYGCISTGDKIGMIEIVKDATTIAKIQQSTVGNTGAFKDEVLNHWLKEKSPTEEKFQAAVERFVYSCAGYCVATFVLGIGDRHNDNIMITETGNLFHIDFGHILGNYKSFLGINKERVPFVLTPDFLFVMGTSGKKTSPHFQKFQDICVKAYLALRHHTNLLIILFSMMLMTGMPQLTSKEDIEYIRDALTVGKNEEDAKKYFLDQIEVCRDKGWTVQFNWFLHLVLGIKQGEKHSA
Assay: Enzyme Assay
# note: exactly 200 nM is not below, so it is not satisfied; use satisfied for IC50 strictly under it

smiles=Nc1nc(N2CCC[C@H]2c2nc3cccc(Cl)c3c(=O)n2N2CCOCC2)c2nccn2n1 class_name=satisfied
smiles=Nc1nc(N2C[C@@H](F)C[C@H]2c2nc3cccc(C(F)(F)F)c3c(=O)n2-c2cccnc2)c2nc[nH]c2n1 class_name=satisfied
smiles=CC1(n2c([C@@H]3CCCN3c3nc(N)nc4[nH]cnc34)nc3cccc(Cl)c3c2=O)CC1 class_name=satisfied
smiles=Nc1nc(N2C[C@@H](O)C[C@H]2c2nc3cccc(C(F)(F)F)c3c(=O)n2-c2ccccc2)c2ncsc2n1 class_name=satisfied
smiles=CO[C@H]1C[C@@H](c2nc3cccc(Cl)c3c(=O)n2C2CC2)N(c2nc(N)nc(C)c2C#N)C1 class_name="not satisfied"
smiles=CN(C)n1c([C@@H]2CCCN2c2nc(N)nc3[nH]cnc23)nc2cccc(Cl)c2c1=O class_name="not satisfied"
smiles=Cc1nc(N)nc(N2C[C@@H](O)C[C@H]2c2nc3cccc(C(F)(F)F)c3c(=O)n2-c2cccc(F)c2)c1C#N class_name=satisfied
smiles=O=c1c2c(Cl)cccc2nc([C@@H]2CCCN2c2ncnc3[nH]cnc23)n1[C@@H]1CCN(S(=O)(=O)C2CC2)C1 class_name="not satisfied"

* * *

Reported pIC50 values for a set of molecules
Target: PIK3CA (human) (UniProt P42336)
Assay: Enzyme Assay
pIC50: −log10 of the molar value.
reported_property: pIC50

smiles=CO[C@H]1C[C@@H](c2nc3cccc(Cl)c3c(=O)n2N2CCOCC2)N(c2nc(N)nc(C)c2C#N)C1 measurement_target="PIK3CA (human) (UniProt P42336)" reported_property=pIC50 censor_symbol== endpoint_value=5.91
smiles=CO[C@H]1C[C@@H](c2nc3cccc(C(F)(F)F)c3c(=O)n2-c2ccccc2)N(c2nc(N)nc(C)c2C#N)C1 measurement_target="PIK3CA (human) (UniProt P42336)" reported_property=pIC50 censor_symbol== endpoint_value=5.68
smiles=N#Cc1c(N)ncnc1N1CCC[C@H]1c1nc2cccc(Cl)c2c(=O)n1N1CCCCC1 measurement_target="PIK3CA (human) (UniProt P42336)" reported_property=pIC50 censor_symbol=< endpoint_value=5.00
smiles=Nc1nc(N2CCC[C@H]2c2nc3cccc(Cl)c3c(=O)n2-c2cccnc2)c2nc[nH]c2n1 measurement_target="PIK3CA (human) (UniProt P42336)" reported_property=pIC50 censor_symbol== endpoint_value=5.82
